# Protocol summary: p53 small molecule agonists, cell-based qHTS assay with rat liver microsomes: qHTS cell viability counter screen (AID 1963580); also: nearly all actives have a fitted effect of over 45% in size
# Experimental setup: p53RE-bla HCT-116 + rat microsomes, ATP viability, 16 h; series mostly up to 66 µM
# Source text: National Center for Advancing Translational Sciences [NCATS] Division of Preclinical Innovation [DPI] U.S. Environmental Protection Agency [EPA] National Institutes of Environmental Health Sciences [NIEHS] National Toxicology Program [NTP] U.S. Food and Drug Administration [FDA] p53, a tumor suppressor protein, is activated following cellular insult, including DNA damage and other cellular stresses. […] The activation of the reporter gene under culture conditions can be detected by fluorescence intensity. […]
Inconclusive results are not listed. Activity calls are given as the source filed them. Calls follow the shape of the full dose curve.
Permitted responses: Y = active, N = inactive

# Compound, Group label
measured = [
    ("O=C(NC(=O)c1c(F)cccc1F)Nc1ccc(Oc2ccc(C(F)(F)F)cc2Cl)cc1F", "N"),
]

Could you kindly confirm the outcome this assay logged for CCN[C@H](C)Cc1cccc(C(F)(F)F)c1 ? N

Could you kindly confirm the outcome this assay logged for CCOC(=O)CCl ? N

Could you kindly confirm the outcome this assay logged for N=C(N)[Se] ? N

Could you kindly confirm the outcome this assay logged for CCCCC(CC)COC(=O)OOC(C)(C)C (stereo unspecified) ? N

Could you kindly confirm the outcome this assay logged for CCNP(=S)(OC)O/C(C)=C/C(=O)OC(C)C (stereo unspecified) ? N

Could you kindly confirm the outcome this assay logged for CCCN ? N

Could you kindly confirm the outcome this assay logged for O=C(N[C@H]1N=C(c2ccccc2F)c2cccc3c2N(CC3)C1=O)c1cc2ccccc2[nH]1 ? N

Could you kindly confirm the outcome this assay logged for O=[N+]([O-])c1ccc(O)c([N+](=O)[O-])c1 ? N
